The reported numbers originate from the supplement of paper PMC5998384.

Give thermal stability score for every item shown.
# Test system: HeLa Kyoto;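 further: synchronized HeLa Kyoto cells, proteins quantified by TMT10plex mass spectrometry, three biological replicates, mitosis taken 0.5 h after nocodazole release, G1/S directly after double thymidine block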
# METHOD NOTES: thermal stability score vs G1/S (z-score of summed log2 fold changes over temperatures); higher = more thermally stable than in G1/S
# CONDITION LABEL: cell cycle stage: early G1 (4.5 h after nocodazole release)
// keep it numeric: no unit symbol after the value

Prompt: Return reported thermal stability score; argument: MGAVWSALLVGGGLAGALFVWLLRGGPGDTGKDGDAEQEKDAPLGGAAIPGGHQSGSSGLSPGPSGQELVTKPEHLQESNGHLISKTKDLGKLQAASWRLQNPSREVCDNSREHVPSGQFPDTEAPATSETSNSRSYSEVSRNESLESPMGEWGFQKGQEISAKAATCFAEKLPSSNLLKNRAKEEMSLSDLNSQDRVDHEEWEMVPRHSSWGDVGVGGSLKAPVLNLNQGMDNGRSTLVEARGQQVHGKMERVAVMPAGSQQVSVRFQVHYVTSTDVQFIAVTGDHECLGRWNTYIPLHYNKDGFWSHSIFLPADTVVEWKFVLVENGGVTRWEECSNRFLETGHEDKVVHAWWGIH [STBD1]
Response: 0.314

Prompt: State the recorded thermal stability score for this entry: MAGSYPEGAPAVLADKRQQFGSRFLRDPARVFHHNAWDNVEWSEEQAAAAERKVQENSIQRVCQEKQVDYEINAHKYWNDFYKIHENGFFKDRHWLFTEFPELAPSQNQNHLKDWFLENKSEVPECRNNEDGPGLIMEEQHKCSSKSLEHKTQTLPVEENVTQKISDLEICADEFPGSSATYRILEVGCGVGNTVFPILQTNNDPGLFVYCCDFSSTAIELVQTNSEYDPSRCFAFVHDLCDEEKSYPVPKGSLDIIILIFVLSAIVPDKMQKAINRLSRLLKPGGMMLLRDYGRYDMAQLRFKKGQCLSGNFYVRGDGTRVYFFTQEELDTLFTTAGLEKVQNLVDRRLQVNRGKQLTMYRVWIQCKYCKPLLSSTS [METTL2A]
Response: 0.497

Prompt: If you can, please state the reported thermal stability score value of MTTYSDKGAKPERGRFLHFHSVTFWVGNAKQATSFYCSKMGFEPLAYRGLETGSREVVSHVIKQGKIVFVLSSALNPWNKEMGDHLVKHGDGVKDIAFEVEDCDYIVQKARERGAKIMREPWVEQDKFGKVKFAVLQTYGDTTHTLVEKMNYIGQFLPGYEAPAFMDPLLPKLPKCSLEMIDHIVGNQPDQEMVSASEWYLKNLQFHRFWSVDDTQVHTEYSSLRSIVVANYEESIKMPINEPAPGKKKSQIQEYVDYNGGAGVQHIALKTEDIITAIRHLRERGLEFLSVPSTYYKQLREKLKTAKIKVKENIDALEELKILVDYDEKGYLLQIFTKPVQDRPTLFLEVIQRHNHQGFGAGNFNSLFKAFEEEQNLRGNLTNMETNGVVPGM [HPD] .
Response: 1.14

Prompt: Bench note: what thermal stability score did MIKLFSLKQQKKEEESAGGTKGSSKKASAAQLRIQKDINELNLPKTCDISFSDPDDLLNFKLVICPDEGFYKSGKFVFSFKVGQGYPHDPPKVKCETMVYHPNIDLEGNVCLNILREDWKPVLTINSIIYGLQYLFLEPNPEDPLNKEAAEVLQNNRRLFEQNVQRSMRGGYIGSTYFERCLK [UBE2M] show?
Response: -1.49

Prompt: So what does the record say about thermal stability score for MADIDNKEQSELDQDLDDVEEVEEEETGEETKLKARQLTVQMMQNPQILAALQERLDGLVETPTGYIESLPRVVKRRVNALKNLQVKCAQIEAKFYEEVHDLERKYAVLYQPLFDKRFEIINAIYEPTEEECEWKPDEEDEISEELKEKAKIEDEKKDEEKEDPKGIPEFWLTVFKNVDLLSDMVQEHDEPILKHLKDIKVKFSDAGQPMSFVLEFHFEPNEYFTNEVLTKTYRMRSEPDDSDPFSFDGPEIMGCTGCQIDWKKGKNVTLKTIKKKQKHKGRGTVRTVTKTVSNDSFFNFFAPPEVPESGDLDDDAEAILAADFEIGHFLRERIIPRSVLYFTGEAIEDDDDDYDEEGEEADEEGEEEGDEENDPDYDPKKDQNPAECKQQ [NAP1L1] ?
Response: 2.07

Prompt: Can you share its thermal stability score? I mean this sequence: MRKMLAAVSRVLSGASQKPASRVLVASRNFANDATFEIKKCDLHRLEEGPPVTTVLTREDGLKYYRMMQTVRRMELKADQLYKQKIIRGFCHLCDGQEACCVGLEAGINPTDHLITAYRAHGFTFTRGLSVREILAELTGRKGGCAKGKGGSMHMYAKNFYGGNGIVGAQVPLGAGIALACKYNGKDEVCLTLYGDGAANQGQIFEAYNMAALWKLPCIFICENNRYGMGTSVERAAASTDYYKRGDFIPGLRVDGMDILCVREATRFAAAYCRSGKGPILMELQTYRYHGHSMSDPGVSYRTREEIQEVRSKSDPIMLLKDRMVNSNLASVEELKEIDVEVRKEIEDAAQFATADPEPPLEELGYHIYSSDPPFEVRGANQWIKFKSVS [PDHA1]
Response: -1.47
